test system: HEK-293T; assay: Multiplex assay against HEK293T; type: toxicity, cell-based; conditions: human, 24 h, 10 µM, compound concentration 10 uM, replicate 2
Entries and their Population Healthy Nuclei (%) values follow.

compound | assayedSystem | Population Healthy Nuclei (%)
CCCCCNC(=N)N/N=C/c1c[nH]c2ccc(OC)cc12.O=C(O)/C=C\C(=O)O [TEGASEROD MALEATE] | HEK-293T | 27
NC(=O)c1ccc2nc(-c3ccc(C4(N)CCC4)cc3)c(-c3ccccc3)n2n1 [BAY-1125976] | HEK-293T | 74
Cl.NC[C@@H]1O[C@H](C23CC4CC(CC(C4)C2)C3)Cc2c1ccc(O)c2O | HEK-293T | 14
Cc1c(Nc2ccc(S(=O)(=O)N3CCN(C)CC3)cc2F)nc2ccc(Nc3cnn(C4CC4)c3)cn2c1=O | HEK-293T | 79
Cc1ccc(S(=O)(=O)NC2c3ccccc3Oc3ccccc32)cc1 | HEK-293T | 52
Oc1cccc(-c2nc(N3CCOCC3)c3oc4ncccc4c3n2)c1 [PI-103] | HEK-293T | 11
CCOC(=O)CCNc1cc(N2CCc3ccccc3CC2)nc(-c2ccccn2)n1 | HEK-293T | 83
CCCc1cc(C)[nH]c(=O)c1CNC(=O)c1cc(-c2ccc(N3CCN(C(C)C)CC3)nc2)cc2c1cnn2C(C)C | HEK-293T | 20
CC[C@H](Nc1ncnc2[nH]cnc12)c1nc2cccc(F)c2c(=O)n1-c1ccccc1 [IDELALISIB] | HEK-293T | 68
CN1C(=O)[C@@H](NC(=O)c2cc3ccccc3[nH]2)N=C(c2ccccc2)c2ccccc21 [DEVAZEPIDE] | HEK-293T | 46
CN(c1cc(C(F)(F)F)nc(OCCC(=O)O)n1)c1cccc2c1CCC2 | HEK-293T | 68
Cc1ccc(NC(=O)Nc2cc(C(F)(F)F)ccc2F)cc1Nc1ccc2c(c1)NC(=O)/C2=C\c1ccc[nH]1 | HEK-293T | 79
C[C@@H](Oc1cc(-n2cnc3ccc(CN4CCN(C)CC4)cc32)sc1C(N)=O)c1ccccc1C(F)(F)F [GSK-461364] | HEK-293T | 25
N#CCNC(=O)c1ccc(-c2ccnc(Nc3ccc(N4CCOCC4)cc3)n2)cc1 [MOMELOTINIB] | HEK-293T | 41
N#Cc1cccc(C(=O)Nc2cc(-c3ccccc3)nn2-c2ccccc2)c1 | HEK-293T | 31
CC(C)[C@H](CO)Nc1nc(Nc2cccc(Cl)c2)c2ncn(C(C)C)c2n1 [PURVALANOLA] | HEK-293T | 19
CC(Cc1ccc(O)c(O)c1)C(C)Cc1ccc(O)c(O)c1 (stereo not drawn) [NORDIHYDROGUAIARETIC ACID] | HEK-293T | 58
C=CC(=O)Nc1cc(-n2c(=O)ccc3cnc4ccc(-c5ccc(NS(C)(=O)=O)cc5)cc4c32)ccc1C | HEK-293T | 56

###

Entries and their Population Hoechst High Intensity Objects (%) values follow.
test system: HEK-293T; assay: Multiplex assay against HEK293T; assay type: toxicity, cell-based; settings: human, 12 h, 1 µM, compound concentration 1 uM, replicate 2
quantityKind: Population Hoechst High Intensity Objects (%)

compound | unitAbbrev | result
CN(c1cc(C(F)(F)F)nc(OCCC(=O)O)n1)c1cccc2c1CCC2 | % | 4
C=CC(=O)Nc1cc(-n2c(=O)ccc3cnc4ccc(-c5ccc(NS(C)(=O)=O)cc5)cc4c32)ccc1C | % | 5
Cc1ccc(NC(=O)Nc2cc(C(F)(F)F)ccc2F)cc1Nc1ccc2c(c1)NC(=O)/C2=C\c1ccc[nH]1 | % | 2
CC(C)[C@H](CO)Nc1nc(Nc2cccc(Cl)c2)c2ncn(C(C)C)c2n1 | % | 3
CC[C@H](Nc1ncnc2[nH]cnc12)c1nc2cccc(F)c2c(=O)n1-c1ccccc1 | % | 3
Cc1c(Nc2ccc(S(=O)(=O)N3CCN(C)CC3)cc2F)nc2ccc(Nc3cnn(C4CC4)c3)cn2c1=O | % | 3
Cl.Cn1c2c(c3ccc(Cl)c(Cl)c31)C(C#N)C1(CCNCC1)NC2=O (configuration not stated) | % | 3
C[C@@H](Oc1cc(-n2cnc3ccc(CN4CCN(C)CC4)cc32)sc1C(N)=O)c1ccccc1C(F)(F)F | % | 4
CCCCCNC(=N)N/N=C/c1c[nH]c2ccc(OC)cc12.O=C(O)/C=C\C(=O)O [TEGASEROD MALEATE] | % | 1
CC(Cc1ccc(O)c(O)c1)C(C)Cc1ccc(O)c(O)c1 (configuration not stated) [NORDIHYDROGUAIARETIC ACID] | % | 5
NC(=O)c1ccc2nc(-c3ccc(C4(N)CCC4)cc3)c(-c3ccccc3)n2n1 | % | 4
Oc1cccc(-c2nc(N3CCOCC3)c3oc4ncccc4c3n2)c1 | % | 14
CCOc1ccn(-c2ccc(F)cc2)c(=O)c1C(=O)Nc1ccc(Oc2ccnc(N)c2Cl)c(F)c1 | % | 2
CCCCN(CC)c1nc(C)nc2c1c(C)cn2-c1c(C)cc(C)cc1C.Cl | % | 1
Cc1c(Nc2ccc(S(=O)(=O)N3CCN(C)CC3)cc2F)nc2ccc(-c3cnn(C4CC4)c3)cn2c1=O | % | 2
CN1C(=O)[C@@H](NC(=O)c2cc3ccccc3[nH]2)N=C(c2ccccc2)c2ccccc21 [DEVAZEPIDE] | % | 3
CC[C@@H]1C(=O)N(C)c2cnc(Nc3ccc(C(=O)NC4CCN(C)CC4)cc3OC)nc2N1C1CCCC1 | % | 2

Reference source: ChEMBL document CHEMBL4689842
